Below is a list of entries, each paired with its recorded pIC50 value.
# Assay remarks: Effect on chondrocyte hypertrophic differentiation mouse ATDC-5 cells assessed as inhibition of […] gene expression incubated for 2 weeks followed by compound added and every 3 days medium is changed measured after 2 weeks by RT-qPCR analysis
# Type: functional, cell-based
pIC50: −log10 of the molar value.
Measured quantity: pIC50

Entry smiles: O=S(=O)(Nc1ccc(-c2nc(O[C@H]3CC[C@H](O)CC3)c3cn[nH]c3n2)cc1)c1cc(Cl)ccc1F
Assay result: 7.30

Entry smiles: Cc1n[nH]c2nc(-c3ccc(NS(=O)(=O)c4cc(Cl)ccc4F)cc3)nc(OC3CCN(C4CC4)CC3)c12
Assay result: 8.15

Entry smiles: N#Cc1ccc(Cl)cc1S(=O)(=O)Nc1ccc(-c2ncc3c(N)n[nH]c3n2)cc1
Assay result: 6.26

Entry smiles: Cc1n[nH]c2nc(-c3ccc(NS(=O)(=O)c4cc(Cl)ccc4F)cc3)nc(OC3CCN(C(C)C)CC3)c12
Assay result: 7.15

* * *

# Assay remarks: Tmax in Sprague-Dawley rat plasma at 30 mg/kg, po
# Assay type: ADME, organism-based
Measured quantity: Tmax (h)

Entry smiles: N#Cc1ccc(Cl)cc1S(=O)(=O)Nc1ccc(-c2ncc3c(N)n[nH]c3n2)cc1
Assay result: 4

* * *

# Assay remarks: Cmax in Lewis rat plasma at 30 mg/kg, po measured after 8 hrs
# Format: ADME, organism-based
# Design: route oral, time 8 hrs, dose 30 mg/kg
Measured quantity: Cmax (ng/mL)

Entry smiles: Cc1n[nH]c2nc(-c3ccc(NS(=O)(=O)c4cc(Cl)ccc4F)cc3)nc(OC3CCN(C(C)C)CC3)c12
Assay result: 4200
--
Entry smiles: N#Cc1ccc(Cl)cc1S(=O)(=O)Nc1ccc(-c2ncc3c(N)n[nH]c3n2)cc1
Assay result: 2970

* * *

# System name: hERG (KCNH2) (Homo sapiens, UniProt Q12809)
# Sequence (Q12809 whole entry): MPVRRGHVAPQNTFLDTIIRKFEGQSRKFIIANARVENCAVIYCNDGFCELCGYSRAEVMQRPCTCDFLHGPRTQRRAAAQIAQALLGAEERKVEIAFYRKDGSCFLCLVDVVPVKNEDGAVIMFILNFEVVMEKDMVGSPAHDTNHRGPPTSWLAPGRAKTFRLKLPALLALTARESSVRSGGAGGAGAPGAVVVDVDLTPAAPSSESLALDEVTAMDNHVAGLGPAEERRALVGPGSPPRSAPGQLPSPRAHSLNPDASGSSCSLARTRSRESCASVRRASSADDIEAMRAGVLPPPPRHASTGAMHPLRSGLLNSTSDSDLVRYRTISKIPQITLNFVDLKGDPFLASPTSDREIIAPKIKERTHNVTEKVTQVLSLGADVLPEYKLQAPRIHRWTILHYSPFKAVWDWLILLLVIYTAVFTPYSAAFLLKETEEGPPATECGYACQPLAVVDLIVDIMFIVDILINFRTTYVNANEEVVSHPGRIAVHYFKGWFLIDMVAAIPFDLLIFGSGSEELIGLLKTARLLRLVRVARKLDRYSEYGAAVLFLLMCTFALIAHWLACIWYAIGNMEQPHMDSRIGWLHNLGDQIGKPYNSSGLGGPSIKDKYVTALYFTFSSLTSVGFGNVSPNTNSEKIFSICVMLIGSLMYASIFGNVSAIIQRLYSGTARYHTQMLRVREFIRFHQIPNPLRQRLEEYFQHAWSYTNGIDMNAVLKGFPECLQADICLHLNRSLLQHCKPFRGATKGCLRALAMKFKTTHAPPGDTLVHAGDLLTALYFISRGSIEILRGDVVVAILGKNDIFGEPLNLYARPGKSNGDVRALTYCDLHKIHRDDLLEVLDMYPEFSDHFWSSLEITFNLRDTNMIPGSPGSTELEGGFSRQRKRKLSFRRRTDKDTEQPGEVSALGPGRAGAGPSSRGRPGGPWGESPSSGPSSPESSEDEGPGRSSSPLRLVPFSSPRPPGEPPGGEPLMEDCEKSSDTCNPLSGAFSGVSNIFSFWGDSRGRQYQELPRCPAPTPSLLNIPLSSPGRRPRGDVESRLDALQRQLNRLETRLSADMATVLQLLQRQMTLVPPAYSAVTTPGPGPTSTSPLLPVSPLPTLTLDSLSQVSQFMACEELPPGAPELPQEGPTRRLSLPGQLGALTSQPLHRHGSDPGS
# Assay remarks: Inhibition of human ERG at 10 uM
# Assay type: toxicity
Parameter: inhibition at 10 µM. Scope: all listed entries.

Entry smiles: N#Cc1ccc(Cl)cc1S(=O)(=O)Nc1ccc(-c2ncc3c(N)n[nH]c3n2)cc1
inhibition at 10 µM, %: 11
--
Entry smiles: Cc1n[nH]c2nc(-c3ccc(NS(=O)(=O)c4cc(Cl)ccc4F)cc3)nc(OC3CCN(C(C)C)CC3)c12
inhibition at 10 µM, %: 91
--
Entry smiles: O=S(=O)(Nc1ccc(-c2nc(O[C@H]3CC[C@H](O)CC3)c3cn[nH]c3n2)cc1)c1cc(Cl)ccc1F
inhibition at 10 µM, %: 65
--
Entry smiles: Cc1n[nH]c2nc(-c3ccc(NS(=O)(=O)c4cc(Cl)ccc4F)cc3)nc(OC3CCN(C4CC4)CC3)c12
inhibition at 10 µM, %: 5

* * *

# Assay remarks: Half life in Sprague-Dawley rat plasma at 30 mg/kg, po
# Format: ADME, organism-based

Entry smiles: N#Cc1ccc(Cl)cc1S(=O)(=O)Nc1ccc(-c2ncc3c(N)n[nH]c3n2)cc1
Quantity unit: h
half-life: 2.8

* * *

# System name: Serine/threonine-protein kinase Sgk1 (Homo sapiens)
# Sequence (O00141 whole entry): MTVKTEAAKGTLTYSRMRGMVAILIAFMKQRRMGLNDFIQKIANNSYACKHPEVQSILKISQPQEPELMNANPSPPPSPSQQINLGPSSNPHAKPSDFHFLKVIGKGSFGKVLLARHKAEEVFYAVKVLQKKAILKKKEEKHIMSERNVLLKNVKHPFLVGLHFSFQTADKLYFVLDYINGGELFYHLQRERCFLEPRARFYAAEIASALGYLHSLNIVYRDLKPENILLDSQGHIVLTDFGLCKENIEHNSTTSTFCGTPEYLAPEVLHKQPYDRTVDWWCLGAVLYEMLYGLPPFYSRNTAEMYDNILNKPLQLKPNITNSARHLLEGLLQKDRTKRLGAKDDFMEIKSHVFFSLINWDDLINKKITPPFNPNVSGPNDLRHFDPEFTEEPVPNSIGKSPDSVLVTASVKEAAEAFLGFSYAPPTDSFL
# Assay remarks: Inhibition of recombinant human SGK1 expressed in baculovirus expression system using 5-carboxyfluorescein -RPRAATF-NH2 as substrate preincubated for 30 mins followed by substrate addition in presence of 500 uM ATP and measured after 60 mins by microfluidics assay
Measured IC50, listed per entry.
Measured quantity: IC50

Compound: NCCNC(=O)c1cc(-c2ccc(NS(=O)(=O)c3cccc(Cl)c3Cl)cc2)nc2[nH]ncc12
System name: Serine/threonine-protein kinase Sgk1 (Homo sapiens)
Assay result: < 0.001 µM

Compound: Cc1n[nH]c2nc(-c3ccc(NS(=O)(=O)c4cc(Cl)ccc4F)cc3)nc(OC3CCN(C(C)C)CC3)c12
System name: Serine/threonine-protein kinase Sgk1 (Homo sapiens)
Assay result: 0.003 µM

Compound: Cc1n[nH]c2nc(-c3ccc(NS(=O)(=O)c4cc(Cl)ccc4F)cc3)nc(OC3CCOCC3)c12
System name: Serine/threonine-protein kinase Sgk1 (Homo sapiens)
Assay result: 0.014 µM

Compound: Cc1n[nH]c2nc(-c3ccc(NS(=O)(=O)c4cc(Cl)ccc4F)cc3)nc(OCCCO)c12
System name: Serine/threonine-protein kinase Sgk1 (Homo sapiens)
Assay result: 0.01 µM

Compound: O=C(NCCc1cc[nH]n1)c1cc(-c2ccc(NS(=O)(=O)c3cccc(Cl)c3Cl)cc2)nc2[nH]ncc12
System name: Serine/threonine-protein kinase Sgk1 (Homo sapiens)
Assay result: 0.246 µM

Compound: Cc1n[nH]c2nc(-c3ccc(NS(=O)(=O)c4cc(Cl)ccc4F)cc3)nc(OC3CCNCC3(F)F)c12 (configuration not stated)
System name: Serine/threonine-protein kinase Sgk1 (Homo sapiens)
Assay result: 0.001 µM

Compound: O=C(NCc1ncn[nH]1)c1cc(-c2ccc(NS(=O)(=O)c3cccc(Cl)c3Cl)cc2)nc2[nH]ncc12
System name: Serine/threonine-protein kinase Sgk1 (Homo sapiens)
Assay result: 0.107 µM

* * *

# Assay remarks: AUC (0 to 24 hrs) in C57BL/6 mouse at 30 mg/kg, po
# Type: ADME, organism-based
# Design: time < 24 hr, route oral, dose 30 mg/kg
# Condition parameters: in vivo

Entry smiles: Cc1n[nH]c2nc(-c3ccc(NS(=O)(=O)c4cc(Cl)ccc4F)cc3)nc(OC3CCN(C(C)C)CC3)c12
AUC(0-t) at 24 h, ng·h/mL: 22800

* * *

# System name: Cytochrome P450 3A4 (Homo sapiens)
# Sequence (P08684 whole entry): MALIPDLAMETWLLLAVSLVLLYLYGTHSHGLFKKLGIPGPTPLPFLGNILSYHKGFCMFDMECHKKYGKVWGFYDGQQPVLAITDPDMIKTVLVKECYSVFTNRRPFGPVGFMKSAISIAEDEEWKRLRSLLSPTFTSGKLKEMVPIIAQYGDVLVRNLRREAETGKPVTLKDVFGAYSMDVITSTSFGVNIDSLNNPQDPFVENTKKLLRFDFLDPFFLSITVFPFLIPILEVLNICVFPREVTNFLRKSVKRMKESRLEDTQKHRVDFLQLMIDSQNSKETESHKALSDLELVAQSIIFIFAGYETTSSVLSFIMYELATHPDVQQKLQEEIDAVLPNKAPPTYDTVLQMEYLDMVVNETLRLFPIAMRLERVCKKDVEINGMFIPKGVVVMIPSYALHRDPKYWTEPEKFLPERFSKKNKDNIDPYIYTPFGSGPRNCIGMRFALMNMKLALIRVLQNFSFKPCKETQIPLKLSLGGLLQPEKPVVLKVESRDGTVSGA
# Assay remarks: Inhibition of CYP3A4 in human liver microsomes using midazolam as substrate incubated for 10 mins by LC-MS/MS analysis
# Type: ADME
Measured quantity: IC50

Entry smiles: Cc1n[nH]c2nc(-c3ccc(NS(=O)(=O)c4cc(Cl)ccc4F)cc3)nc(OC3CCN(C(C)C)CC3)c12
Assay result: > 30 µM
//
Entry smiles: N#Cc1ccc(Cl)cc1S(=O)(=O)Nc1ccc(-c2ncc3c(N)n[nH]c3n2)cc1
Assay result: > 30 µM
//
Entry smiles: Cc1n[nH]c2nc(-c3ccc(NS(=O)(=O)c4cc(Cl)ccc4F)cc3)nc(OC3CCN(C4CC4)CC3)c12
Assay result: > 30 µM
//
Entry smiles: O=S(=O)(Nc1ccc(-c2nc(O[C@H]3CC[C@H](O)CC3)c3cn[nH]c3n2)cc1)c1cc(Cl)ccc1F
Assay result: > 3 µM

* * *

# Assay remarks: Half life in C57BL/6 mouse plasma at 3 mg/kg, iv
# Assay type: ADME, organism-based
Measured quantity: half-life

Entry smiles: Cc1n[nH]c2nc(-c3ccc(NS(=O)(=O)c4cc(Cl)ccc4F)cc3)nc(OC3CCN(C(C)C)CC3)c12
Measured quantity: half-life
Assay result: 2.1 h

* * *

# Assay remarks: Permeability in human Caco2 cells at 20 uM incubated for 120 mins by ESI-MS/MS analysis
# Assay type: ADME, cell-based
# Condition parameters: Caco-2, read-out: permeability

Entry smiles: Cc1n[nH]c2nc(-c3ccc(NS(=O)(=O)c4cc(Cl)ccc4F)cc3)nc(OC3CCN(C4CC4)CC3)c12
Quantity unit: ×10⁻⁶ cm/s
Papp at 2 h, 20 µM: 5
--
Entry smiles: N#Cc1ccc(Cl)cc1S(=O)(=O)Nc1ccc(-c2ncc3c(N)n[nH]c3n2)cc1
Quantity unit: ×10⁻⁶ cm/s
Papp at 2 h, 20 µM: 1.5
--
Entry smiles: Cc1n[nH]c2nc(-c3ccc(NS(=O)(=O)c4cc(Cl)ccc4F)cc3)nc(OC3CCN(C(C)C)CC3)c12
Quantity unit: ×10⁻⁶ cm/s
Papp at 2 h, 20 µM: 4.6
--
Entry smiles: O=S(=O)(Nc1ccc(-c2nc(O[C@H]3CC[C@H](O)CC3)c3cn[nH]c3n2)cc1)c1cc(Cl)ccc1F
Quantity unit: ×10⁻⁶ cm/s
Papp at 2 h, 20 µM: 8.6

* * *

# Assay remarks: Tmax in Lewis rat femoral head cartilage at 30 mg/kg, po measured after 8 hrs
# Type: ADME, organism-based, Femur
# key: entry, value: Tmax
Measured quantity: Tmax (h)

Entry smiles: Cc1n[nH]c2nc(-c3ccc(NS(=O)(=O)c4cc(Cl)ccc4F)cc3)nc(OC3CCN(C(C)C)CC3)c12
Measured quantity: Tmax
Assay result: 8
//
Entry smiles: N#Cc1ccc(Cl)cc1S(=O)(=O)Nc1ccc(-c2ncc3c(N)n[nH]c3n2)cc1
Measured quantity: Tmax
Assay result: 2

* * *

# Assay remarks: Aqueous solubility of the compound at pH 7.4
# Assay type: physicochemical
Entries and their measured solubility follow.
Measured quantity: solubility (µg/mL)

Entry smiles: N#Cc1ccc(Cl)cc1S(=O)(=O)Nc1ccc(-c2ncc3c(N)n[nH]c3n2)cc1
Prefix operator: =
Assay result: 58
//
Entry smiles: O=S(=O)(Nc1ccc(-c2nc(O[C@H]3CC[C@H](O)CC3)c3cn[nH]c3n2)cc1)c1cc(Cl)ccc1F
Prefix operator: =
Assay result: 4
//
Entry smiles: Cc1n[nH]c2nc(-c3ccc(NS(=O)(=O)c4cc(Cl)ccc4F)cc3)nc(OC3CCN(C4CC4)CC3)c12
Prefix operator: <
Assay result: 1
//
Entry smiles: Cc1n[nH]c2nc(-c3ccc(NS(=O)(=O)c4cc(Cl)ccc4F)cc3)nc(OC3CCN(C(C)C)CC3)c12
Prefix operator: <
Assay result: 1

Data provenance is ChEMBL document CHEMBL5042500.
